Assay: chemical genetic growth profiling, strain panel (AID 1159580);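 further: tested at 20 µM; growth read once vehicle control cultures reached saturation at 30 °C; lower values mean less growth of the strain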
Conditions: S. cerevisiae deletion strains, growth OD, locus YOL012C, strain htz1
Screen size: about 5,500 compounds; about 2,000 (36%) were called active. Another 18% or so got no clear call; they are omitted. Some of the results follow.
Could you mark each record satisfied if its normalized growth falls strictly under 0.9, and not satisfied if it equals or exceeds it?

COc1ccc(C(Cl)=C(c2ccc(OC)cc2)c2ccc(OC)cc2)cc1	not satisfied

Take the compound COc1cc(C(=O)NCc2ccc(OCCN(C)C)cc2)cc(OC)c1OC and say whether its normalized growth is less than 0.9.
not satisfied

Please do the same for CC/C(=C(\c1ccccc1)c1ccc(OCCN(C)C)cc1)c1ccccc1 as well.
satisfied

Please do the same for C/C=C/c1ccc2c(c1)OCO2 as well.
not satisfied

Please do the same for CCN(CC)CCOc1ccc2c(c1)C(=O)c1cc(OCCN(CC)CC)ccc1-2 as well.
satisfied

Please do the same for CN(C)CCOC(C)(c1ccccc1)c1ccccn1 (configuration not stated) as well.
satisfied
